assay: Plasma pharmacokinetics of telaglenastat; type: in vivo, human; details: human, in vivo, 800 mg, C max, steady state C1D15, 800 mg BID-fed (n = 10), mean (CV%)
endpoint: Cmax (ng/mL)
The reply should contain only the number, in ng/mL.

Measured Cmax of O=C(Cc1cccc(OC(F)(F)F)c1)Nc1ccc(CCCCc2nnc(NC(=O)Cc3ccccn3)s2)nn1 [telaglenastat, Telaglenastat] : 1770

---

experiment: Plasma pharmacokinetics of telaglenastat; assay type: in vivo, human; conditions: human, in vivo, 800 mg, AUC0–8h, steady state C1D15, 800 mg BID-fed (n = 10), mean (CV%)
endpoint: AUC(0-t) (ng·h/mL)
The reply should contain only the number, in ng·h/mL.

Measured AUC(0-t) of O=C(Cc1cccc(OC(F)(F)F)c1)Nc1ccc(CCCCc2nnc(NC(=O)Cc3ccccn3)s2)nn1 [telaglenastat, Telaglenastat] : 9660
